Assay: In vitro metabolism rate determination, human liver microsome (HLM) assay
Format: in vitro ADME
Settings: human, liver microsomes, read-out: HLM: Clint, app
Attribute Measured: microsomal CLint at 1 μM (µL/min/mg)
// units = µL/min/mg; emit number, no label

Looking up CC(C)(C)N1C[C@@H](C(=O)N2CCC[C@@H](c3ccc(Cl)cc3)N(C(=O)C3CC(F)(F)C3)CC2)[C@H](c2ccc(F)cc2F)C1 , I see its microsomal CLint at 1 μM listed as 13.9

Looking up COC(=O)N1CCN(C(=O)[C@@H]2CN(C(=O)OC(C)(C)C)C[C@H]2c2ccc(F)cc2F)CCCC1c1ccccc1 (mixture of isomers) , I see its microsomal CLint at 1 μM listed as 247

Looking up CC(C)(C)N1C[C@@H](C(=O)N2CCC[C@@H](c3ccc(Cl)cc3)N(C(=O)C3CC(F)(F)C3)CC2)[C@H](c2ccc(Cl)cn2)C1 , I see its microsomal CLint at 1 μM listed as 9.43

Continuing:
Looking up COC(=O)N1CCN(C(=O)C2CN(c3ccc(C#N)nn3)CC2c2ccc(OC)cc2F)CCC[C@H]1c1ccc(Cl)cc1 (stereo partly shown) , I see its microsomal CLint at 1 μM listed as 42.9

Looking up CC(=O)N1CCN(C(=O)[C@@H]2CN(C(C)(C)C)C[C@H]2c2ccc(F)cc2F)CCC1c1ccc(Cl)cc1 (mixture of isomers) , I see its microsomal CLint at 1 μM listed as 27.9

Looking up CC(C)OC(=O)N1CCN(C(=O)[C@@H]2CN(C(C)(C)C)C[C@H]2c2ccc(F)cc2F)CCC[C@H]1c1ccc(Cl)cc1 , I see its microsomal CLint at 1 μM listed as 27.7

Looking up CC1(C(=O)N2CCN(C(=O)[C@@H]3CN(C(C)(C)C)C[C@H]3c3ccc(F)cc3F)CCC[C@H]2c2ccc(Cl)cc2)CC1 , I see its microsomal CLint at 1 μM listed as 31.1

Looking up COc1ccc([C@@H]2CN(c3ccc(=O)[nH]n3)C[C@H]2C(=O)N2CCC[C@@H](c3ccc(Cl)cc3)N(C(C)=O)CC2)c(F)c1 , I see its microsomal CLint at 1 μM listed as 13.7

----------
Biological target: MC4 receptor (MC4R) (Homo sapiens)
Attribute Measured: Ki (nM)
// units = nM; emit number, no label

Lab entry: MC4 receptor (MC4R) (Homo sapiens) assay, compound COc1cccc(C2CCCN(C(=O)[C@@H]3CN(c4ccc(C#N)nn4)C[C@H]3c3ccc(F)cc3F)CCN2C(C)=O)c1 (mixture of isomers) [Example 4] , Ki = 555

Continuing:
Lab entry: MC4 receptor (MC4R) (Homo sapiens) assay, compound COc1ccc([C@@H]2CN(c3ccc(=O)n(C)n3)C[C@H]2C(=O)N2CCCC(c3ccc(Cl)cc3)N(S(C)(=O)=O)CC2)c(F)c1 (mixture of isomers) [Example 115] , Ki = 53.9

Lab entry: MC4 receptor (MC4R) (Homo sapiens) assay, compound COC(=O)N1CCN(C(=O)[C@@H]2CN(c3ccc(C#N)nn3)C[C@H]2c2ccc(F)cc2F)CCCC1c1ccc(Cl)cc1 (mixture of isomers) [Example 75] , Ki = 84.7

----------
Listed here: items and their measured log10 Ki.
Molecular target: MC3 receptor (MC3R) (Homo sapiens, UniProt P41968)
Sequence (P41968 whole entry): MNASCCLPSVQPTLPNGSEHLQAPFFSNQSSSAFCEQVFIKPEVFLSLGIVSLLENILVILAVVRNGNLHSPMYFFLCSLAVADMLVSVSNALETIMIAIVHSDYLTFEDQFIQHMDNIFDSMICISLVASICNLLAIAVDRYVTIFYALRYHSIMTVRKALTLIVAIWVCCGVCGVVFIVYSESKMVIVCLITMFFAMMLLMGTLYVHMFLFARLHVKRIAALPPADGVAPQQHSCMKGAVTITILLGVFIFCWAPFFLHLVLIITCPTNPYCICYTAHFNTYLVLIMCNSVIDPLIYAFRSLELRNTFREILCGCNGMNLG
The common logarithm of Ki in nM is what is listed.

Lab entry: MC3 receptor (MC3R) (Homo sapiens, UniProt P41968) assay, compound COc1ccc([C@@H]2CN(C(C)(C)C)C[C@H]2C(=O)N2CCC[C@@H](c3ccc(Cl)cc3)N(C(C)=O)CC2)c(F)c1 , log10 Ki = 3.77

Lab entry: MC3 receptor (MC3R) (Homo sapiens, UniProt P41968) assay, compound COc1ccc([C@@H]2CN(c3ccc(=O)[nH]n3)C[C@H]2C(=O)N2CCC[C@@H](c3ccc(Cl)cc3)N(C(C)=O)CC2)c(F)c1 , log10 Ki = 2.49

Lab entry: MC3 receptor (MC3R) (Homo sapiens, UniProt P41968) assay, compound COC(=O)N1CCN(C(=O)[C@@H]2CN(C(C)(C)C)C[C@H]2c2ccc(F)cc2F)CCCC1c1ccc(Cl)cc1 (mixture of isomers) , log10 Ki = 3.91

Lab entry: MC3 receptor (MC3R) (Homo sapiens, UniProt P41968) assay, compound COC(=O)N1CCN(C(=O)[C@@H]2CN(c3ccc(C#N)nn3)CC2c2ccc(OC)cc2F)CCC[C@H]1c1ccc(Cl)cc1 (stereo partly drawn) , log10 Ki = 2.60

Lab entry: MC3 receptor (MC3R) (Homo sapiens, UniProt P41968) assay, compound COc1ccc([C@@H]2CN(C(C)(C)C)C[C@H]2C(=O)N2CCCC(c3ccc(Cl)cc3)N(S(C)(=O)=O)CC2)c(F)c1 (mixture of isomers) , log10 Ki = 4.25

Continuing:
Lab entry: MC3 receptor (MC3R) (Homo sapiens, UniProt P41968) assay, compound COC(=O)N1CCN(C(=O)[C@@H]2CN(c3ccc(C#N)nn3)C[C@H]2c2ccc(F)cc2F)CCCC1c1ccc(OC)cc1 (mixture of isomers) , log10 Ki = 3.42

Lab entry: MC3 receptor (MC3R) (Homo sapiens, UniProt P41968) assay, compound CCCC(=O)N1CCN(C(=O)[C@@H]2CN(C(C)(C)C)C[C@H]2c2ccc(F)cc2F)CCCC1c1ccccc1 (mixture of isomers) , log10 Ki = 3.96

Lab entry: MC3 receptor (MC3R) (Homo sapiens, UniProt P41968) assay, compound COC(=O)N1CCN(C(=O)[C@@H]2CN(c3ccc(Cl)nn3)C[C@H]2c2ccc(OC)cc2F)CCCC1c1ccc(Cl)cc1 (mixture of isomers) , log10 Ki = 2.83

Lab entry: MC3 receptor (MC3R) (Homo sapiens, UniProt P41968) assay, compound CS(=O)(=O)N1CCN(C(=O)[C@@H]2CN(c3ccc(=O)[nH]n3)C[C@H]2c2ccc(F)cc2F)CCCC1c1ccc(Cl)cc1 (mixture of isomers) , log10 Ki = 3.05

Lab entry: MC3 receptor (MC3R) (Homo sapiens, UniProt P41968) assay, compound CC(=O)N1CCN(C(=O)[C@@H]2CN(c3ccc4nncn4n3)C[C@H]2c2ccc(Cl)cn2)CCC[C@H]1c1ccc(Cl)cc1 , log10 Ki = 1.95

Lab entry: MC3 receptor (MC3R) (Homo sapiens, UniProt P41968) assay, compound COc1cccc(C2CCCN(C(=O)[C@@H]3CN(c4ccc(C#N)nn4)C[C@H]3c3ccc(F)cc3F)CCN2C(C)=O)c1 (mixture of isomers) , log10 Ki = 2.91

Lab entry: MC3 receptor (MC3R) (Homo sapiens, UniProt P41968) assay, compound COC(=O)N1CCN(C(=O)[C@@H]2CN(c3cccnn3)C[C@H]2c2ccc(OC)cc2F)CCC1c1ccc(Cl)cc1 (mixture of isomers) , log10 Ki = 3.61

----------
Target: MC4 receptor (Homo sapiens, UniProt P32245)
Sequence (P32245 whole entry): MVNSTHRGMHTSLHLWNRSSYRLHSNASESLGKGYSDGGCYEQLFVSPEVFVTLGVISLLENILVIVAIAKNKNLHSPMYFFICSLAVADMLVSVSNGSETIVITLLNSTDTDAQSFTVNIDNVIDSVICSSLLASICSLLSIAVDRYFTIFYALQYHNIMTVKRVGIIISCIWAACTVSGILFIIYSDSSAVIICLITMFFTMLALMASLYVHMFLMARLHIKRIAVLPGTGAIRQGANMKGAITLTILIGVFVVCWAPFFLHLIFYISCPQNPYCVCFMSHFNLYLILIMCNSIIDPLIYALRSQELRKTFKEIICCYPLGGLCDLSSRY
Experiment: MC4 EC50 functional potency (protocol E of US2005/0176772 / WO 2005/077935)
Description: The compounds of formula (I) of the present invention have utility as MCR4 agonists in the treatment of various disease states. MC5 and MC4 EC50 activity was determined as described by assay protocols D and E, respectively, in US2005/0176772 (pages 28-30).
pEC50: −log10 of the molar value.
Rule: pEC50 of 8 or more gives satisfied; anything lower gives not satisfied.

Determine whether measured pEC50 meets or exceeds 8 for COc1ccc([C@@H]2CN(c3ccc(=O)n(C)n3)C[C@H]2C(=O)N2CCCC(c3ccc(Cl)cc3)N(S(C)(=O)=O)CC2)c(F)c1 (single isomer, unassigned) [Example 117] not satisfied

Determine whether measured pEC50 meets or exceeds 8 for COC(=O)N1CCN(C(=O)[C@@H]2CN(c3ccc(=O)n(C)n3)C[C@H]2c2ccc(OC)cc2F)CCC[C@H]1c1ccc(Cl)cc1 satisfied

Determine whether measured pEC50 meets or exceeds 8 for CCOC(=O)N1CCN(C(=O)[C@@H]2CN(C(C)(C)C)C[C@H]2c2ccc(F)cc2F)CCC[C@H]1c1ccc(Cl)cc1 not satisfied

Determine whether measured pEC50 meets or exceeds 8 for COc1ccc([C@@H]2CN(C(C)(C)C)C[C@H]2C(=O)N2CCC[C@@H](c3ccc(Cl)cc3)N(C(C)=O)CC2)c(F)c1 not satisfied

Determine whether measured pEC50 meets or exceeds 8 for COC(=O)N1CCN(C(=O)[C@@H]2CN(c3ccc(=O)[nH]n3)C[C@H]2c2ccc(OC)cc2F)CCC[C@@H]1c1ccc(Cl)cc1 satisfied

Continuing:
Determine whether measured pEC50 meets or exceeds 8 for COC(=O)N1CCN(C(=O)[C@@H]2CN(C(C)(C)C)C[C@H]2c2ccc(F)cc2F)CCCC1c1ccc(Cl)cc1 (mixture of isomers) not satisfied

Determine whether measured pEC50 meets or exceeds 8 for COC(=O)N1CCN(C(=O)[C@@H]2CN(C3CCOCC3)C[C@H]2c2ccc(F)cc2F)CCCC1c1ccccc1 (mixture of isomers) not satisfied

Determine whether measured pEC50 meets or exceeds 8 for CC(=O)N1CCN(C(=O)[C@@H]2CN(C(C)(C)C)C[C@H]2c2ccc(F)cc2F)CCC1c1ccc(Cl)cc1 (mixture of isomers) not satisfied

Determine whether measured pEC50 meets or exceeds 8 for COc1ccc([C@@H]2CN(c3ccc(C#N)nn3)C[C@H]2C(=O)N2CCC[C@@H](c3ccc(Cl)cc3)N(C(=O)C(C)C)CC2)c(F)c1 satisfied

Determine whether measured pEC50 meets or exceeds 8 for CS(=O)(=O)N1CCN(C(=O)[C@@H]2CN(c3ccc(C#N)nn3)C[C@H]2c2ccc(F)cc2F)CCCC1c1ccc(Cl)cc1 (mixture of isomers) not satisfied

The origin of these recorded values is patent US8592403B2.
